Listed below: pEC50 values for each entry.
Molecular target: AMPK
Test: AMPK activation, enzyme-linked immunosorbent assay
Assay type: biochemical
Details: Table 10, compounds of Table 3
Description: Compounds of Table 1 were assayed for their ability to activate AMPK using an enzyme-linked immunosorbent assay. Compounds of Table 2 were assayed for their ability to activate AMPK using an enzyme-linked immunosorbent assay. Compounds of Table 3 were assayed for their ability to activate AMPK using an enzyme-linked immunosorbent assay. Compounds of Table 4 were assayed for their ability to activate AMPK using an enzyme-linked immunosorbent assay. […]
pEC50: −log10 of the molar value.

// solved cases for pEC50 follow
> print(dat)
                                   compound  observedproperty  observedresult
1  N#Cc1ccc(CN2CCc3ccc(C(=O)NC4CCN(Cc5cccnc5)CC4)cc3C2)cc1             pEC50          > 7.00
2  N#Cc1ccc(C(=O)N2CC3CC2CN3C(=O)c2nc3ccc(OC4CCN(c5ccc(C(F)(F)F)cc5)CC4)cc3o2)cc1 (centres unmarked)             pEC50          > 7.00
3  N#Cc1ccc(CN2CCC(NC(=O)c3cnc(OC4CCN(Cc5ccc(C(F)(F)F)cc5)CC4)s3)CC2)cc1             pEC50          > 7.00
4  N#Cc1ccc(CN2CCC(NC(=O)c3cnc(OC4CCN(c5ccc(C(F)(F)F)cc5)CC4)s3)CC2)cc1             pEC50          > 7.00
5  N#Cc1ccc(CN2CCC(NC(=O)c3ccc(C(=O)N4CCN(Cc5ccc(Cl)cc5)CC4)cc3)CC2)cc1             pEC50          > 7.00
6  N#Cc1ccc(CN2CCC(NC(=O)c3nc4ccc(OC5CCN(c6ccc(C(F)(F)F)cc6)CC5)cc4o3)CC2)cc1             pEC50          > 7.00

Please look at the following compound next.
Note to self: pEC50 recorded for O=C(NC1CCNCC1)c1nc2ccc(OC3CCN(c4ccc(C(F)(F)F)cc4)CC3)cc2o1 was 4.00 to 5.00

----------
Target: AMPK
Experiment: AMPK activation, enzyme-linked immunosorbent assay
Format: biochemical
Conditions: Table 8, compounds of Table 1
observedProperty: EC50

// solved cases for EC50 follow
> print(dat)
                                   compound  observedproperty   observedresult
1  N#Cc1ccc(CN2CCC(NC(=O)c3ccc(OC4CCN(c5ccc(C#N)cc5)CC4)cn3)CC2)cc1 [Compound 1-2]              EC50         < 100 nM
2  CS(=O)(=O)c1ccc(CN2CC[C@@H](Oc3ccc4oc(C(=O)NC5CCN(Cc6ccc(C#N)cc6)CC5)cc4c3)[C@H](F)C2)cc1 [Compound 1-167]              EC50         < 100 nM
3  O=C(NC1CCN(Cc2cccnc2)CC1)c1cc2ccc(OC3CCN(c4ccc(C(F)(F)F)cc4)CC3)cc2o1 [Compound 1-96]              EC50         < 100 nM
4  O=C(NC1CCN(Cc2cccnc2)CC1)c1cncc(OC2CCN(c3ccc(C(F)(F)F)cc3)CC2)c1 [Compound 1-18]              EC50         < 100 nM
5  O=S(=O)(NC1CCNCC1)c1ccc(OC2CCN(c3ccc(C(F)(F)F)cc3)CC2)nc1 [Compound 1-55]              EC50  1000 to 5000 nM
6  CC(C)(C)OC(=O)NCCCNC(=O)c1ccc(OC2CCN(c3ccc(C(F)(F)F)cc3)CC2)cn1 [Compound 1-49]              EC50         < 100 nM
7  O=C(N[C@H]1CCN(Cc2cccnc2)C1)c1cc2cc(OC3CCN(Cc4ccc(Cl)cc4)CC3)ccc2o1 [Compound 1-130]              EC50  1000 to 5000 nM
8  CC(C)(C)OC(=O)N1CCC(NC(=O)c2ccnc(OC3CCN(c4ccc(C(F)(F)F)cc4)CC3)c2)CC1 [Compound 1-15]              EC50  1000 to 5000 nM

Note to self: EC50 recorded for N#Cc1ccc(CN2CCC(NC(=O)c3ccnc(OC4CCN(c5ccc(C(F)(F)F)cc5)CC4)c3)CC2)cc1 [Compound 1-21] was 100 to 500 nM

Note to self: EC50 recorded for O=C(NC1CCN(Cc2c[nH]cn2)CC1)c1ccc(OC2CCN(c3ccc(C(F)(F)F)cc3)CC2)cn1 [Compound 1-48] was 1000 to 5000 nM

All figures here come from patent US9409884B2.
